Attribution: ChEMBL document CHEMBL3045793

system: THP-1; assay: Anti-inflammatory activity in Homo sapiens (human) THP1 cells assessed as inhibition of LPS-induced TNF-alpha production preincubated at 10 uM for 30 min before LPS treatment measured after 24 hr by ELISA; assay type: functional
Attribute: inhibition at 10 µM
API: value field is a number in %; no unit string.

In the examples that follow, each entry is paired with its recorded inhibition at 10 µM.
[[record]]
compound = "CCOC(=O)C1=C(C)NC(=S)NC1c1ccc(NC(=S)Nc2c(F)cccc2Cl)cc1 (stereo not given)"
unit = "%"
numeric_value = 42

[[record]]
compound = "CCOC(=O)C1=C(C)NC(=S)NC1c1ccc(NC(=S)Nc2ccccc2C(F)(F)F)cc1 (stereo not given)"
unit = "%"
numeric_value = 8

[[record]]
compound = "CCOC(=O)C1=C(C)NC(=S)NC1c1ccc(N)cc1 (stereo not given)"
unit = "%"
numeric_value = 0

[[record]]
compound = "CCOC(=O)C1=C(C)NC(=S)NC1c1ccc(NC(=S)Nc2ccc(F)c(Cl)c2)cc1 (stereo not given)"
unit = "%"
numeric_value = 0


Please find the next compound below.
Kindly note: THP-1, CCOC(=O)C1=C(C)NC(=S)NC1c1ccc(NC(=S)Nc2ccc(C(C)C)cc2)cc1 (stereo not given) , inhibition at 10 µM value reported: 61

----------
tested on: Salmonella typhimurium; test: Antibacterial activity against Salmonella enterica subsp. enterica serovar Typhimurium up to 200 ug/ml by agar well diffusion method; assay type: functional, organism-based
Calls of active or inactive are those of the source. No cut-off for these calls is given here.
Readout type: Activity

[[record]]
compound = "CCOC(=O)C1=C(C)NC(=S)NC1c1ccc(NC(=S)Nc2ccc(C)c(C)c2)cc1 (centres undefined)"
readout_type = "Activity"
result = "inactive"

[[record]]
compound = "CCOC(=O)C1=C(C)NC(=S)NC1c1ccc(NC(=S)Nc2ccc(F)c(C)c2)cc1 (centres undefined)"
readout_type = "Activity"
result = "inactive"

[[record]]
compound = "CCOC(=O)C1=C(C)NC(=S)NC1c1ccc(NC(=S)Nc2ccc(F)c(Cl)c2)cc1 (centres undefined)"
readout_type = "Activity"
result = "inactive"

[[record]]
compound = "CCCCc1ccc(NC(=S)Nc2ccc(C3NC(=S)NC(C)=C3C(=O)OCC)cc2)cc1 (centres undefined)"
readout_type = "Activity"
result = "inactive"


----------
system: Staphylococcus aureus; test: Antibacterial activity against Staphylococcus aureus by agar well diffusion method; type: functional
Mark y only for MIC values smaller than 60 µg/mL; exact matches and larger values are n.

[[record]]
compound = "CCOC(=O)C1=C(C)NC(=S)NC1c1ccc([N+](=O)[O-])cc1 (stereo unspecified)"
discrete_label = "y"


Prompt line: Quick check: does CCOC(=O)C1=C(C)NC(=S)NC1c1ccc(NC(=S)Nc2ccc(F)c(C)c2)cc1 (stereo unspecified) have MIC under 60 µg/mL?
Response line: n

Prompt line: Quick check: does CCOC(=O)C1=C(C)NC(=S)NC1c1ccc(NC(=S)Nc2ccc(C(C)C)cc2)cc1 (stereo unspecified) have MIC under 60 µg/mL?
Response line: n

Prompt line: Quick check: does CCOC(=O)C1=C(C)NC(=S)NC1c1ccc(NC(=S)Nc2ccc(C(F)(F)F)cc2Cl)cc1 (stereo unspecified) have MIC under 60 µg/mL?
Response line: n

Prompt line: Quick check: does CCOC(=O)C1=C(C)NC(=S)NC1c1ccc(NC(=S)Nc2cc(C(F)(F)F)ccc2Cl)cc1 (stereo unspecified) have MIC under 60 µg/mL?
Response line: n

Prompt line: Quick check: does CCOC(=O)C1=C(C)NC(=S)NC1c1ccc(NC(=S)Nc2ccccc2F)cc1 (stereo unspecified) have MIC under 60 µg/mL?
Response line: y

Prompt line: Quick check: does CCOC(=O)C1=C(C)NC(=S)NC1c1ccc(NC(=S)Nc2ccc(F)c(Cl)c2)cc1 (stereo unspecified) have MIC under 60 µg/mL?
Response line: n

Prompt line: Quick check: does CCOC(=O)C1=C(C)NC(=S)NC1c1ccc(NC(=S)Nc2ccccc2Cl)cc1 (stereo unspecified) have MIC under 60 µg/mL?
Response line: y
